tested on: COLO 205 colon; test: NCI tumour cell line growth inhibition, 48 h
Each item that follows carries a reported TGI.

Compound	TGI [µM]
CC1Cc2c(N(C)C)ncnc2N(C)c2ccc(Cl)cc21 (configuration not stated)	6.55
CCCCCCCCCCCCCCCC[N+]1(CC)CCCC1	0.731
N#Cc1c2c(c(N=[N+]=[N-])n3c1nc1ccccc13)CCCC2	13.1
COC(=O)c1cc(Nc2ccc(O)c3c2C(=O)c2c([N+](=O)[O-])ccc(O)c2C3=O)cc(C(=O)OC)c1	5.56
COc1ccc(CNc2nc(NCc3ccc(OC)cc3)nc(NC3CCCCC3)n2)cc1	5.35
CCN(CC)CCC(=O)Nc1ccc(Cn2nnc3c2C(=O)c2nnn(Cc4ccc(NC(=O)CCN(CC)CC)cc4)c2C3=O)cc1	0.333
CCOC(=O)c1c2c(n(C)c1-c1ccccc1)C(=O)C(C)=CC2=O	4.5
Cc1cc(NS(=O)(=O)c2ccc(Nc3c4ccccc4nc4c(C(=O)NCCN(C)C)ccc(Cl)c34)cc2)no1	14.9
COC(=O)Cc1c(C2=Nc3ccccc3C2(O)CC(=O)OC)[nH]c2ccccc12 (configuration not stated)	52.3

###

system: SK-MEL-28 melanoma; test: NCI tumour cell line growth inhibition, 48 h
Each item that follows carries a reported GI50.
Endpoint Name: GI50

O=C(/C=C/N1CCN(c2cccc(C(F)(F)F)c2)CC1)c1ccc(Cl)cc1Cl 21100 nM
c1ccc2c(c1)nc(NCCN1CCNCC1)c1c3ccccc3[nH]c21 1370 nM
COc1ccc(C[C@H]2C[C@@H](O)[C@@H](C)C/C=C/Cc3cccc(O)c3C(=O)O2)cn1 27200 nM
COc1cccc(-c2nn(-c3ccccc3)cc2-c2ccnc(NCCNC(=O)Nc3ccc(Cl)c(Cl)c3)c2)c1 2030 nM
COc1ccccc1Cn1cc2c(c1)-c1oncc1CC2 2520 nM

###

tested on: RXF 393 renal; test: NCI tumour cell line growth inhibition, 48 h
Endpoint Name: GI50

Molecule	Endpoint Name	Measured
CC(C)OP(=O)(CP(=O)(OC(C)C)OC(C)C)OC(C)C.[CH3][Sn]([Br])([Br])[Br]	GI50	> 100 µM
CCCC/C(=N\N=C(N)N)c1ccc(F)cc1	GI50	2.04 µM
O=c1oc(-c2ccc(O)c(O)c2)cc2cc(O)cc(O)c12	GI50	35.9 µM
O=C1C=C(Nc2cccc(Br)c2)c2ccccc2C1=O	GI50	3.27 µM
C/C(=C(/c1ccc(O)cc1)c1ccc(OCCN2CCCC2)cc1)c1ccccc1	GI50	2 µM
Cc1nnc([S-])s1.[Au+].c1ccc([PH+](c2ccccc2)c2ccccc2)cc1	GI50	1.26 µM
COc1ccc2nc3ccc(OC)cc3c(SCCCN)c2c1	GI50	2.42 µM
Cc1ccc(C2=Nc3c(N)ncnc3NC(c3cccc(Nc4ccnc5cc(C(F)(F)F)ccc45)c3)C2)cc1 (stereo not given)	GI50	1.69 µM
c1ccc2c(c1)nc(NCCN1CCNCC1)c1c3ccccc3[nH]c21	GI50	0.438 µM
Nc1ncnc2occ(-c3ccc(NC(=O)Nc4cc(C(F)(F)F)cc(C(F)(F)F)c4)cc3)c12	GI50	1.24 µM

###

Each item that follows carries a reported TGI.
tested on: ACHN renal; test: NCI tumour cell line growth inhibition, 48 h
Where a SMILES comes first, the peptide text is derived from it. [ ]: non-standard residue; d: D form. The star is where a group is joined. ξ: configuration not given here. NMeY = CN[C@@H](Cc1ccc(O)cc1)C(=O)O; Cbz = O=C(OCc1ccccc1)*; ξA = CC(N)C(=O)O
Endpoint Name: TGI

Compound	Measured
COc1ccccc1Cn1cc2c(c1)-c1oncc1CC2	> 100 µM
c1ccc2c(c1)nc(NCCN1CCNCC1)c1c3ccccc3[nH]c21	2.38 µM
COc1ccc(C[C@@H](C(=O)NCC(N)=O)N(C)C(=O)[C@@H]2CCCN2C(=O)[C@H](CC(C)C)NC(=O)C(C)NC(=O)OCc2ccccc2)cc1 (stereo partly specified) (Cbz-[ξA]LP[NMeY](Me)G-NH2)	> 100 µM
CCOC(=O)c1c2c(n(C)c1-c1ccccc1)C(=O)C(C)=CC2=O	20.7 µM
N#Cc1c2c(c(N=[N+]=[N-])n3c1nc1ccccc13)CCCC2	5.46 µM
Oc1ccc(-c2c3c(nc4c2CCc2ccc(Br)cc2-4)-c2cc(Br)ccc2CC3)cc1	45.2 µM
COc1cc2oc3ccccc3c(=O)c2cc1CSc1ccccc1N	> 100 µM
COc1ccccc1C(=O)c1c(N2CCCCC2)c(=O)c1=O	> 100 µM
COc1ccc2nc3ccc(OC)cc3c(SCCCN)c2c1	19.5 µM
CC[C@]12C=CCN3CC[C@]4(C(=C(C(=O)OC)C1)Nc1cc(O)ccc14)[C@@H]32	41.4 µM
CCN(CC)c1ccc(C(=C2C=CC(=[N+](CC)CC)C=C2)c2ccc(N(CC)CC)cc2)cc1	0.348 µM
CC(CS(=O)(=O)Cc1ccccc1)C(N)=O (stereo unspecified)	> 100 µM
OC(CC(c1ccccc1)c1ccc(Cl)cc1)c1ccc(Cl)cc1 (stereo unspecified)	77.6 µM
O=C(OCc1ccccc1CN1CCOCC1)c1ccc(Br)cc1	> 100 µM
CN(C)c1ccc(/C=C(\NC(=O)c2ccccc2)C(=O)Nc2ccccc2C(=O)NN2C(=O)CSC2c2ccc(N(C)C)cc2)cc1 (stereo unspecified)	> 100 µM
CC1(C)CC(=O)C(/C=N/c2nc(-c3ccc(Br)cc3)cs2)=C(O)C1	> 100 µM
O=[N+]([O-])c1ccc2nc3ccc([N+](=O)[O-])cn3c2c1	> 100 µM
O=C1CCC2(CCC(=O)NC2=O)C(=O)N1	> 100 µM
Cc1cc(N(CCC#N)S(=O)(=O)c2ccccc2)ccc1C=O	> 100 µM
O=C1NC(=O)/C(=C\c2ccncc2)N1	> 100 µM
Cc1[nH]c(=O)nc(N/N=C/c2ccc(Cl)c(Cl)c2)c1C(=O)Nc1ccc(Cl)c(Cl)c1	> 53.1 µM

These entries and their values trace back to PubChem BioAssay (NCI).
